# IC50 per entry for JAK2 (GST-JAK2(808-1132)) (Homo sapiens)
Your answer should be a plain number; it is taken to be in nM.

Some solved entries appear below for comparison.
CN(C)C1CCN(C(=O)c2ccc(-c3cnc4ccc(NCc5cc(F)ccc5F)nn34)cc2)CC1 [Example 2.3] :: 14
O=C(c1ccc(-c2cnc3ccc(NCc4cc(F)ccc4F)nn23)cc1)N1CCOCC1 [Example 2.4] :: 20

Then this molecule:
Lab note: record IC50 of O=C(NC1CCOCC1)c1cccc(-c2cnc3ccc(NCc4cc(F)ccc4F)nn23)c1 [Example 2.5] tested on JAK2 (GST-JAK2(808-1132)) (Homo sapiens).
Sequence (O60674 808-1132): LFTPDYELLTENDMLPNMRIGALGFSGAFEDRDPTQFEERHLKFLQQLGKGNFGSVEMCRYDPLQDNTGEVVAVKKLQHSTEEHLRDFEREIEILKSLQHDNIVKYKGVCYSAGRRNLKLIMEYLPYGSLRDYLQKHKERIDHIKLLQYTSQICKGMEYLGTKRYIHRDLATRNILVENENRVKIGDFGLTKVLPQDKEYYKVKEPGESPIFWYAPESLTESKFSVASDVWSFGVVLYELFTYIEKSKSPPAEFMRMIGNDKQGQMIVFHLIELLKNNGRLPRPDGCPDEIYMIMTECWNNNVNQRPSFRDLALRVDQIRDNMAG
21
